Entries annotated with measured concentration at 7 h
# assay: Compound was tested for plasma concentration in dogs 7 hours after oral administration (30 mg/kg)
# Format: ADME, organism-based, Canis lupus familiaris
# cond: dog
The response must be a number in nM with no trailing unit.

Solved cases below.
# cpdSmiles, concentration at 7 h [nM]
records = [
    ("CC[C@@H](C(=O)N[C@H](/C=C/C(=O)OC1CCC1)C[C@@H]1CCNC1=O)n1cccc(NC(=O)c2cc(C)on2)c1=O", 222),
    ("C#CC[C@@H](C(=O)N[C@H](/C=C/C(=O)OCc1ccccc1)C[C@@H]1CCNC1=O)n1cccc(NC(=O)c2cc(C)on2)c1=O", 563),
    ("C#CC[C@@H](C(=O)N[C@H](/C=C/C(=O)OC1CCCC1)C[C@@H]1CCNC1=O)n1cccc(NC(=O)c2cc(C)on2)c1=O", 160),
    ("CC[C@@H](C(=O)N[C@H](/C=C/C(=O)OCc1ccccc1)C[C@@H]1CCNC1=O)n1cccc(NC(=O)c2cc(C)on2)c1=O", 156),
    ("C#CC[C@@H](C(=O)N[C@H](/C=C/C(=O)OCC)C[C@@H]1CCNC1=O)n1cccc(NC(=O)c2cc(C)on2)c1=O", 248),
]

Now let's try a different one.
Query :: Please give the documented concentration at 7 h of C#CC[C@@H](C(=O)N[C@H](/C=C/C(=O)OC1CCC1)C[C@@H]1CCNC1=O)n1cccc(NC(=O)c2cc(C)on2)c1=O
Result :: 73

---

Target or system Human rhinovirus A protease (Human rhinovirus sp.) (UniProt Q4U254): recorded K obs / 1 listed per item.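 Note: inhibition of the human rhinovirus 3C protease enzyme.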
The response must be a number in M⁻¹ s⁻¹ with no trailing unit.

Query :: Please indicate recorded K obs / 1 of C#CC[C@@H](C(=O)N[C@H](/C=C(\C)C(=O)OCC)C[C@@H]1CCNC1=O)n1cccc(NC(=O)c2cc(C)on2)c1=O measured with Human rhinovirus A protease (Human rhinovirus sp.) (UniProt Q4U254).
Sequence (Q4U254 as listed by the source): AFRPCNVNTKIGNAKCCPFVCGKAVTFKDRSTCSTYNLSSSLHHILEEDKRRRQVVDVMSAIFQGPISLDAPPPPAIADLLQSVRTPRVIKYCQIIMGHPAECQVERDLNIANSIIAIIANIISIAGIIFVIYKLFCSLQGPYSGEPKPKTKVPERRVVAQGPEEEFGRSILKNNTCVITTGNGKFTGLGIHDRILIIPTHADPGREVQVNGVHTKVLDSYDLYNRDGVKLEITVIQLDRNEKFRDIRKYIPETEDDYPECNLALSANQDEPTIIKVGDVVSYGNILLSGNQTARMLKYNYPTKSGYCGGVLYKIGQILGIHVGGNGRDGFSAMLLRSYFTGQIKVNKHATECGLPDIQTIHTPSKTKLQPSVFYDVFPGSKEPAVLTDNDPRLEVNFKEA
Result :: 12500

Query :: Please indicate recorded K obs / 1 of C#CC[C@@H](C(=O)N[C@H](/C=C/C(=O)OC1CCCCC1)C[C@@H]1CCNC1=O)n1cccc(NC(=O)c2cc(C)on2)c1=O measured with Human rhinovirus A protease (Human rhinovirus sp.) (UniProt Q4U254).
Result :: 34000

Query :: Please indicate recorded K obs / 1 of C#CC[C@@H](C(=O)N[C@H](/C=C/C(=O)OCC(C)(C)C)C[C@@H]1CCNC1=O)n1cccc(NC(=O)c2cc(C)on2)c1=O measured with Human rhinovirus A protease (Human rhinovirus sp.) (UniProt Q4U254).
Result :: 128000

Query :: Please indicate recorded K obs / 1 of C#CC[C@@H](C(=O)N[C@H](/C=C/C(=O)OC1CCC1)C[C@@H]1CCNC1=O)n1cccc(NC(=O)c2cc(C)on2)c1=O measured with Human rhinovirus A protease (Human rhinovirus sp.) (UniProt Q4U254).
Result :: 207000

---

# assay: Compound was tested for human plasma protein binding
# Assay type: ADME, cell-free
Entries annotated with measured Free
The response must be a number in % with no trailing unit.

Solved cases below.
# compound, Free [%]
measured = [
    ("C#CC[C@@H](C(=O)N[C@H](/C=C/C(=O)OC1CCCC1)C[C@@H]1CCNC1=O)n1cccc(NC(=O)c2cc(C)on2)c1=O", 7),
    ("Cc1cc(C(=O)Nc2cccn([C@@H](Cc3ccc(F)c(F)c3)C(=O)N[C@H](/C=C/C(=O)OC(C)C)C[C@@H]3CCNC3=O)c2=O)no1", 9),
    ("C#CC[C@@H](C(=O)N[C@H](/C=C/C(=O)OCC)C[C@@H]1CCNC1=O)n1cccc(NC(=O)c2cc(C)on2)c1=O [IMOCITRELVIR]", 34),
]

Query :: Please give the documented Free of CC[C@@H](C(=O)N[C@H](/C=C/C(=O)OCc1ccccc1)C[C@@H]1CCNC1=O)n1cccc(NC(=O)c2cc(C)on2)c1=O
Result :: 8

Query :: Please give the documented Free of CC[C@@H](C(=O)N[C@H](/C=C/C(=O)OC1CCC1)C[C@@H]1CCNC1=O)n1cccc(NC(=O)c2cc(C)on2)c1=O
Result :: 33

Query :: Please give the documented Free of C#CC[C@@H](C(=O)N[C@H](/C=C/C(=O)OCc1ccccc1)C[C@@H]1CCNC1=O)n1cccc(NC(=O)c2cc(C)on2)c1=O
Result :: 13
